# assayInfo: in vitro
# conditionLabel: human, hela cells, % viability
testReadout: viability at 28.5 h, 10 µM (%)
One number for each entry, in %.

compound | viability at 28.5 h, 10 µM / %
O=C(COc1ccc(S(=O)(=O)N2CCCCC2)cc1)NCc1ccccn1 | 91.6
Fc1ccc(CCN2CCC(Oc3cncc(OCC4COc5ccccc5O4)n3)C2)cc1 (stereo not shown) | 99.8
CC(=O)Nc1ccc(-c2csc(Nc3ccc(S(=O)(=O)Nc4nc(C)cc(C)n4)cc3)n2)cc1 | 87
O=C(O)c1cccc(OCCNS(=O)(=O)c2ccc(N3CCCC3=O)cc2)c1 | 97.3
N#C/C(=C/c1ccc(-c2ccc(S(N)(=O)=O)cc2)o1)c1nc2ccccc2s1 | 83.8
CCOC(=O)c1ccc(NC(=O)C2CC(=O)NC(Nc3nc4ccccc4s3)=N2)cc1 (stereo not shown) | 100

Batch lookup, viability at 28.5 h, 10 µM per entry.
1. COc1ccc(-c2nc(-c3cc4ccccc4o3)cnc2N)cc1OC
2. COc1ccc(CN2CCN(Cc3cc(Br)ccc3O)CC2)cc1OC
3. NCC(NC(=O)c1cnc(-c2ccncc2)s1)C1CCCCC1 (stereo not shown) [CBK306502C]
4. CCN1CC2(CCN(CCOc3ccccc3)CC2)c2ccccc21
5. Cc1cc(N2CCC(N3CCN(C)CC3)CC2)nc(N)n1
6. CCC1(CC)CCN(C(=O)CCn2ccc3ccncc32)C1
7. CS(=O)(=O)N1CCN(c2ccccc2NC(=O)COc2ccccc2Cl)CC1
8. Cn1c(=O)c2c(=S)[nH]c(-c3ccccc3)nc2n(C)c1=O

Reply text:
1: 63.2; 2: 95.5; 3: 104; 4: 100; 5: 94.3; 6: 84.9; 7: 103; 8: 103

Provide the reported viability at 28.5 h, 10 µM of each entry below, same order.
1. COc1ccc(-c2noc(COc3cccc(C(=O)O)c3)n2)c(OC)c1
2. COc1cccc(C2=CC(c3ccccc3Cl)N3N=NNC3=N2)c1 (stereo not shown)
3. Cc1[nH]c2ccccc2c1Cc1n[nH]c(=S)n1Cc1ccccc1
4. COc1ccc(C(=O)/C=C(\Nc2cccc(C(F)(F)F)c2)C(=O)O)cc1
5. CCc1cc(C(=O)OC)c(NC(=O)C2C3C=CC(C3)C2C(=O)O)s1 (stereo not shown)

Reply text:
[101, 84.4, 99.5, 107, 94.9]
